- experiment notes: Pharmacokinetic study of tadalafil after oral administration to non-pretreated and ticagrelor-pretreated rats, non-compartment analysis
- Type: in vivo, Sprague-Dawley rats
- measurement parameters: Sprague-Dawley, rat, plasma, po, 2 mg/kg, Group T, ticagrelor-pretreated rats (10 mg/kg, 7 days); tadalafil 2 mg/kg oral; mean ± SD, n = 10
observation type: half-life

Query string: Hello, please tell me recorded half-life for this one: CN1CC(=O)N2[C@H](c3ccc4c(c3)OCO4)c3[nH]c4ccccc4c3C[C@@H]2C1=O
Result string: 268 min

* * *

- experiment notes: Pharmacokinetic study of tadalafil after oral administration to non-pretreated and ticagrelor-pretreated rats, non-compartment analysis
- Assay type: in vivo, Sprague-Dawley rats
- measurement parameters: Sprague-Dawley, rat, plasma, po, 2 mg/kg, Group N, non-pretreated rats; tadalafil 2 mg/kg oral; mean ± SD, n = 10
observation type: Tmax (h)
One number for each entry, in h.

Query string: Respond only with Tmax recorded for CN1CC(=O)N2[C@H](c3ccc4c(c3)OCO4)c3[nH]c4ccccc4c3C[C@@H]2C1=O [tadalafil, Tadalafil]
Result string: 1.45
